Experiment Notes: label from the status in PepcDB records

{"columns": ["Sequence Content", "protein production"],
 "data": [
  ["PGLRELCIQKAPGERLGISIRGGARGHAGNPRDPTDEGIFISKVSPTGAAGRDGRLRVGLRLLEVNQQSLLGLTHGEAVQLLRSVGDTLTVLVCDGFE", "not failed"],
  ["MTLVEFPAITFAAVVCWAVGSLLQIPAKNSKVSGPLSWLFLFSGTLVLVWFLASYWIALDRPPLRTLGETRLWYATLIPVVGFLVEYRYKIGWLKYYCMGLATVFLGINYMHPDVFEKALMPALQSPWFVPHVVVYLVGYVLLAASAVSGWHNVFLNFRGKRSAKGESMAHYLALLGFVLLTFGLIFGALWAKEAWGHYWTWDPKETWAFISWLAYLGYLHLVACKTDPRKLQWYLGLAFFVLLVCWFGVNYLPSAQNSVHTYSGAS", "failed"],
  ["MGERGVEMRLRIRFESAECEVELYEEWAPETVRAIADALPIKSTANRWGDEIYFTTQVAVEKEENSKDVVELGDVAYWIPGKAICLFFGKTPISDDKIRPASAVNVIGRIVNSMEGLKGVADGESVVVERA", "not failed"],
  ["MIQCILVMLGGGIGAVIRGFVTDVFNQKFNTSLPIPTLLINVVGSFCIGLLMGMCLNINWINPFIIVGILGGLTTFSTLSSELVKLLTTPKQINLFILYSILQYGVSFVACLLGYYLF", "failed"]
]}

Provenance of the data: a protein production outcome set (Wang et al. 2014)
